assay: yeast display, Sf9 membrane polyspecificity reagent, FACS + sequencing; frameworks hold sequencing errors

# residue string, polyreactivity (PSR sort gate)
records = [
    ("QVQLVESGGGLVQAGGSLRLSCAASGSIFGQNAMGWYRQAPGKEREMVDAITSGAGITYYADSVKGRFTISRDNAKNTVYLQMNSLKPEDTAVYYCNAVPSWSPSALFDYWGQGTQVTVAS", "low polyreactivity"),
    ("QVQLVESGGGLVQEGGSLRLSCAAAGIIFIAYAMGWYREAPGKERELVADISIGGSTNYADSVKGRFTISRDNAKNTVYLQMTSQKPEDTAVYYCNAGGGFYGSTVEHDYWGQGTQVSVSS", "low polyreactivity"),
]

====

assay: yeast display, Sf9 membrane polyspecificity reagent, FACS + sequencing; frameworks hold sequencing errors
test readout: polyreactivity (PSR sort gate)

# residue string, test readout, recorded measurement
records = [
    ("QEQLQESGGGLGQAGGSLRLSCAASGSISSDVLMGWHRQAPGKERELVAAIGIGANTYYADSVKGRFTISRDNAKNTVYPQMNSLKPEDTAVYYCATGRYSGADNYWGQGTQVTVSS", "polyreactivity (PSR sort gate)", "high polyreactivity"),
    ("QVQLVESGGGLVQAGGSLRLSCAASGYIFLAYAMGWYRQAPGKERELVADNTYADSVKGRFTISRDNAKNTVYLQMNSLKPEDPAVYYCNADEVYDEYSYDYWGQGTQVTVSS", "polyreactivity (PSR sort gate)", "low polyreactivity"),
    ("QVQLVESGGGLVQAGGSLRLSCAASGRTFHEYAMGWYRQAPGTERELVADISDGGSTNYADSVKGRFTISRDNAKNTVYLQMNSLKPEDTAVYYCNTDVPSAQYDYWGQGTQVTVSS", "polyreactivity (PSR sort gate)", "low polyreactivity"),
    ("QVQLVESGGGLVQAGGSLRLICAASGLTFNYYVMGWYRQAPGKERELVAAISYSGGRTYYADSVKGRFTISRDNANNTVYLQMNSLKPEDTAVYFCNVTGHRNSFIYYGGYEYWGQGTQVTVSS", "polyreactivity (PSR sort gate)", "high polyreactivity"),
    ("QLQLVESGGGLVQAGGSLRLSCASTGSIFRPSPMGWYRPAPGKDRELVPDITWSGGSTYYADSVKGRFTISRDNAKNTVYLQMNSLKPEDTAVYYCAARFSYWARNSEYWGQGTQVTVSS", "polyreactivity (PSR sort gate)", "low polyreactivity"),
    ("QVQLVESGGGLVQAGGSLRLSCAASGSIIRWNAMGWYRQAPGKERELVAAISYSGGSTYYADSVKGRFTISRDNAKNTVYLQMNSLKPEDTAVYYCAKEYIVGFYLVFNRFDYWGQGTQVTVSS", "polyreactivity (PSR sort gate)", "low polyreactivity"),
    ("QVQLVESGGGLVQAGGSLRLSCAASGRTFLLNAMGWYRQAPGKERELVAAITGSGGRTNYADSVKGRFTISRDNAKNTVYLQMNSLKPEDTAVYYCNARFPDWALSEISHSTTYGYWGQGTQVTVSS", "polyreactivity (PSR sort gate)", "low polyreactivity"),
    ("QVQLVESGGGLVQAGGSLRLSCAASGFTFLYYAMGWYRPAPGKERELVAAISASSDRTYYADSVKGRFTISRDNAKNTVYLQMNSLKPEDTAVYYCAAYNSRVGGYRGYGYWGQGTQVTVSS", "polyreactivity (PSR sort gate)", "high polyreactivity"),
    ("QVQLVESGGGLVQAGGSLRLSCAASGSTFARYAMGWYRQAPGKERELVAAISRRGGSTYYADSVKGRFTISRDNAKNTVYLQINSLKPEDTAVYYCAARYGIITSFEYDYWGQGTQVTVSS", "polyreactivity (PSR sort gate)", "high polyreactivity"),
    ("QVQLVESGGGFVQAGGSLRLSCAATGSIFPQNAMGWYRQAPGKERELVASISSGGRTNYADSVKGRFTISRDYAKNTVYLQMNSLKPEDSAVYFCAKTRIRYKPLHFYYWGQGTQVTVSS", "polyreactivity (PSR sort gate)", "low polyreactivity"),
    ("QVQLVESGGGLVQAGGSLRLSCAASGSIFQHYSLGRSRQAPGKERELVAAISYDTTSTYYADSVKGRFTISRDNAKNNVYLQMNSLKPEDTAVYYCNTYPEVYGPFQYDYWGQGTQVTVSS", "polyreactivity (PSR sort gate)", "low polyreactivity"),
    ("QVQLVESGGGLVQAGGSLRLSCAASGSTFSSNAMGWYRQAPGKERELVAAIDRGGSTYYADSVKGRFTISRDNAKNTVYLQMNSLKPEDNAVYYCNAERETYDYWGQGTQVTVSS", "polyreactivity (PSR sort gate)", "low polyreactivity"),
    ("QVQLVESGGGLVQAGGSLRLSCAASGRTFYYYTMGWYRQAPGKERELVAAITHGGSTYYADSVKGRFTISRDNAKNTVYLQMNSLKPEDTAVYYCNAVYHYPYEYWGQGTQVTVSS", "polyreactivity (PSR sort gate)", "high polyreactivity"),
    ("QVQLVESGGGLVQAGGSLRLSCAASGFTFYYYAKGWYRQAPGKERELVAAINKKGGSTYADSVKGRFTISRDNAKNSVYLQLNSLKPEDTAVYYCYAVLTYTGVGYESWGQGTQVTVSS", "polyreactivity (PSR sort gate)", "high polyreactivity"),
    ("QVQLVESGGGLVQAGGSLRLSCAASGRIFRYYAMGWYRQAPGKERELVAGISRSGGRTYYADSVKGRFTISRDNAKNTVYLQMNSLKPEDTAVYYCNASRGYPYHYDYWGQGTQVTVSS", "polyreactivity (PSR sort gate)", "high polyreactivity"),
    ("QVQLVESGGGLVQAGGSLRLSCAASGSTFVDYAMGWDRQAPGKERELVAGINGSGGSTYYADSVKGRFTISRDNAKNTVYLQMNSLKPEDTAVYYCAKDGSNRLALPAWDYNYWGQGTQVTVSS", "polyreactivity (PSR sort gate)", "low polyreactivity"),
    ("QVQLVESGGGLVQAGGSLRLSCAASGSIFAWYAMGWYRRAPGKESELVAAITWSGGSTYYADSVKGRFTISRDNAKNTVYLQMNSMKQEDTAVYYCAVEWYYRNNAIISGYYYWGKGTQVTVSS", "polyreactivity (PSR sort gate)", "high polyreactivity"),
    ("QVQLVESRGGLVQAGGSLRLSCAASGSIFSFYAMGWYRQAPGKERELVATITSGGSTYYADSVKGRFSISRDNAKNTVYLQMNSLKPEDTAVYYCAARGNFGANPGRKHGFDYWGQGTQVTVSS", "polyreactivity (PSR sort gate)", "high polyreactivity"),
    ("QVQLVESGGGLVQAGGSLRLSCAASGITFLVYVMGWYIQAPGKERELVAAISSGGSTYYADSVKGRFTISRDKAKNTVYLQMNSLKPEDTAVYYCAAERKLYGLYDYWGQGTQVTVSS", "polyreactivity (PSR sort gate)", "low polyreactivity"),
    ("QVQLLESGGGIVQAGGSLRLSCAASGSTYVIYDMVWYRQAPGKERELVAVITIIGGSTYYADSVKGRFTISRDNAKNTVYLQMISLKPEDTAVYYCNANVIQDYPNYDYWGQGTLVTVSS", "polyreactivity (PSR sort gate)", "low polyreactivity"),
    ("QFQLEESGGGLVQAGGSLRLSCAASGNIFFTNAMGRYRQAPGNERELVATITFRGTSTYYADSVKGRFTISRDNAKNTVYLQMNCLKPEDTAVYYCTARYSVFHRARVNLLGWGLYYWGQGTQVTVSS", "polyreactivity (PSR sort gate)", "low polyreactivity"),
]

====

assay: yeast display, Sf9 membrane polyspecificity reagent, FACS + sequencing; frameworks hold sequencing errors

# residue string, polyreactivity (PSR sort gate)
data = [
    ("QVQLVESGGGLVQAGGSLRLSCAASGFIFDRYAMGWYRQAPGKERELVAAISSGGSTYYADSVKGRFTISRDNAKNTVYLQMNSLKPEDTAVYYCAAESWLNFIYEYDYWGQGTQVTVSS", "low polyreactivity"),
    ("QVQLVESGGGLVQPGGSLRLSCAASGRTFVPYAMGWYRQAPGKEREFVAVITWGGGSTYYADSVKGRFTISRDNAKNTVYLQMNSLKPEDTAVYYCDARVYYHYDYWGQGTQVTVSS", "high polyreactivity"),
    ("QVQLVDSGGGLVQAGGSLRLTCAASGSTFDTNSVGWYRQAPGKERELVAAITSGGNTYADSVKGRFTISRDNAKNTVYFQMNSLKAEDTAVYYCAAEDVFTCWYDYWGQGTQVNVSS", "low polyreactivity"),
    ("QVQLVESGGGLVQAGGILRLSCAASGSTFWPYAMGWYRQAPGKERELVATNRGGGTSTYYADSVKGRFTISRDNAKNTVYLQMNSLKPEDTAVYYCAARGFFTGSYPGYYYWGLGTQVTVSS", "high polyreactivity"),
    ("QVQLVESGVGLVQAVGSLRLSCAASGIILHYYAMGWYRQAPGKERELVAAISARGGRTYYADSVKGRFTISRDNAKNTVYLQMNSLKPEDTAVYYCAKDTRRSGVSTYTGNMDYWGHGTQVTVSS", "high polyreactivity"),
]

Hey, just so you know, these numbers are from the nanobody polyreactivity screen of Harvey et al. (2022).
